- System: peach potato aphids (Myzus persicae)
- CONDITION DESCRIPTION: 500 ppm by weight; infested Chinese cabbage leaves sprayed; mortality assessed after three days
For each entry below, report its mortality (score) Mp value.

For orientation, consider the following solved cases.
Task: Determine its reported mortality (score) Mp: CCOCN(C(=O)C(C)c1ccc2oc(C(F)(F)C(F)(F)C(F)(F)F)nc2c1)c1snc(C)c1Cl (stereo not shown) [Table 1 Compound 80]
Result: 5 (5 indicates 40-79% mortality)

Task: Determine its reported mortality (score) Mp: CCc1nsc(NC(=O)C(C)c2ccc3oc(C(F)(F)C(F)(F)C(F)(F)F)nc3c2)c1Cl (stereo not shown) [Table 1 Compound 90]
Result: 0 (represents less than 40% mortality)

Value sought for every listed molecule: mortality (score) Mp.
1. CCc1nsc(NC(=O)C(F)c2ccc3sc(CC(C)(C)C)nc3c2)c1Cl (stereo not shown) [Table 42 Compound 87]
2. CCOCN(C(=O)C(C)c1ccc2oc(C(F)(F)C(F)(F)F)nc2c1)c1snc(CC)c1Cl (stereo not shown) [Table 1 Compound 159]

Result:
9 (9 indicates 80-100% mortality)
9 (9 indicates 80-100% mortality)

# credit: patent US6703347B2
